target: PKR K410E (Homo sapiens, UniProt P30613, K410E); assay: PKR mutant assay (AC50), PKR K410E; assay type: biochemical; conditions: PKR K410E mutant enzyme
Sequence (P30613 whole entry K410E): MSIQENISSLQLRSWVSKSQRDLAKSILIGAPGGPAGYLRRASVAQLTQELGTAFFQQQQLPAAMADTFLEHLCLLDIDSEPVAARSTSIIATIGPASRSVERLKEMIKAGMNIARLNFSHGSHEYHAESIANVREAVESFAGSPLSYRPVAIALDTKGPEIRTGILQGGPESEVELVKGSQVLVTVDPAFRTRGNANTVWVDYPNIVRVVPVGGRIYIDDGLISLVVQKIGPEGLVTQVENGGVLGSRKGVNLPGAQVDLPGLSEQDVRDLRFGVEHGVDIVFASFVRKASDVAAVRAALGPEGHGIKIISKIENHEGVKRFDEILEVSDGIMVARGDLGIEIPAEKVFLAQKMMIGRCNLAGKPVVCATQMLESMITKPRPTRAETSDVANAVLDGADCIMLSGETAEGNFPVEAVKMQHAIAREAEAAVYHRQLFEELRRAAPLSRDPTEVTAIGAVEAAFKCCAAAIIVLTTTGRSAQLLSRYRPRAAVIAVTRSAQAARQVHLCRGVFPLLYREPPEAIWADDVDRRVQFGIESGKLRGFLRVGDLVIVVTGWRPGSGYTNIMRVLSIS
RECORDED_ENDPOINT: AC50

[
  {
    "CHEMICAL_STRUCTURE": "Cn1c2nc(Cn3cnnc3)sc2c2cnn(Cc3cc[nH]n3)c(=O)c21",
    "AC50": "> 800 nM"
  },
  {
    "CHEMICAL_STRUCTURE": "COc1sc(Br)nc1Cc1nc2c(s1)c1cnn(Cc3cc[nH]n3)c(=O)c1n2C",
    "AC50": "< 300 nM"
  },
  {
    "CHEMICAL_STRUCTURE": "Cn1c2nc(Cc3cc[nH]n3)sc2c2cnn(Cc3ccccn3)c(=O)c21",
    "AC50": "< 300 nM"
  },
  {
    "CHEMICAL_STRUCTURE": "Cn1c2nc(Cc3cc[nH]n3)sc2c2cnn(Cc3n[nH]cc3C(N)=O)c(=O)c21",
    "AC50": "< 300 nM"
  },
  {
    "CHEMICAL_STRUCTURE": "Cn1c2nc(Cc3cc[nH]n3)sc2c2cnn(Cc3ncoc3Cl)c(=O)c21",
    "AC50": "< 300 nM"
  },
  {
    "CHEMICAL_STRUCTURE": "Cn1c2nc(Cc3ncsc3Cl)sc2c2cnn(Cc3cc[nH]n3)c(=O)c21",
    "AC50": "< 300 nM"
  },
  {
    "CHEMICAL_STRUCTURE": "Cn1c2nc(Cc3cc[nH]n3)sc2c2cnn(Cc3ncsc3F)c(=O)c21",
    "AC50": "< 300 nM"
  },
  {
    "CHEMICAL_STRUCTURE": "Cn1c2nc(Cc3cc[nH]n3)sc2c2cnn(Cc3cnc(N)o3)c(=O)c21",
    "AC50": "< 300 nM"
  },
  {
    "CHEMICAL_STRUCTURE": "Cn1c2nc(Cc3nc(N)sc3F)sc2c2cnn(Cc3c[nH]nn3)c(=O)c21",
    "AC50": "< 300 nM"
  },
  {
    "CHEMICAL_STRUCTURE": "Cc1ccc(Cn2ncc3c4sc(Cc5cc[nH]n5)nc4n(C)c3c2=O)nc1Cl",
    "AC50": "< 300 nM"
  }
]

## Task Need AC50 of Cn1c2nc([C@@H](O)c3cc[nH]n3)sc2c2cnn(Cc3cc[nH]n3)c(=O)c21 , thanks.
## Result < 300 nM

## Task If you can, please state the reported AC50 value of Cn1ccc(Cn2ncc3c4sc(Cc5csc(CO)n5)nc4n(C)c3c2=O)n1 .
## Result < 300 nM

* * *

# reported AC50; entries follow
target: wild type PKR (Homo sapiens, UniProt P30613); assay: PKR mutant assay (AC50), wild type PKR; type: biochemical; details: wild type PKR enzyme; read-out: PKR WT AC50
Sequence (P30613 whole entry): as the sequence (P30613 whole entry K410E) above, with E410K counted along it

Examples with answers:
[
  {
    "CHEMICAL_STRUCTURE": "Cn1c2nc(Cc3cccc(N)n3)sc2c2cnn(Cc3cscn3)c(=O)c21",
    "EXPERIMENTAL_SYSTEM": "wild type PKR (Homo sapiens, UniProt P30613)",
    "AC50": "< 300 nM"
  },
  {
    "CHEMICAL_STRUCTURE": "Cn1ccc(Cc2nc3c(s2)c2cnn(Cc4ccn(C)n4)c(=O)c2n3C)n1",
    "EXPERIMENTAL_SYSTEM": "wild type PKR (Homo sapiens, UniProt P30613)",
    "AC50": "< 300 nM"
  },
  {
    "CHEMICAL_STRUCTURE": "Cn1c2nc(Cc3ncsc3F)sc2c2cnn(Cc3cc[nH]n3)c(=O)c21",
    "EXPERIMENTAL_SYSTEM": "wild type PKR (Homo sapiens, UniProt P30613)",
    "AC50": "< 300 nM"
  },
  {
    "CHEMICAL_STRUCTURE": "CC(=O)Nc1ccc(F)c(Cn2ncc3c4sc(Cc5cnn(C)c5)nc4n(C)c3c2=O)n1",
    "EXPERIMENTAL_SYSTEM": "wild type PKR (Homo sapiens, UniProt P30613)",
    "AC50": "> 800 nM"
  },
  {
    "CHEMICAL_STRUCTURE": "COc1scnc1Cn1ncc2c3sc(Cc4cc[nH]n4)nc3n(C)c2c1=O",
    "EXPERIMENTAL_SYSTEM": "wild type PKR (Homo sapiens, UniProt P30613)",
    "AC50": "< 300 nM"
  }
]

## Task Form field: reported AC50 of Cn1c2nc(Cc3cc[nH]n3)sc2c2cnn(Cc3cc[nH]c(=O)c3)c(=O)c21
## Result < 300 nM

* * *

Biological target: PKR K410E (Homo sapiens, UniProt P30613, K410E)
Assay: PKR mutant assay (AC50), PKR K410E
Type: biochemical
Conditions: PKR K410E mutant enzyme
Description: Example 11. PKR Mutant Assay PKR or PKR mutant enzyme solution was diluted into a reaction mix, which contains 1× buffer (100 mM KCl, 50 mM Tris pH 7.5, 5 mM MgCl2) as well as PEP (cont depends on enzyme), 180 μM NADH, 0.5 units LDH, 1 mM DTT, 0.03% BSA; final assay concentrations after 1.11 fold dilution are indicated. […] 20 uL ADP was added to start reaction at room temperature and reaction progress was measured as changes in absorbance at 340 nm wavelength at room temperature. […]
In this section we review reported AC50 values for a set of molecules.

[
  {
    "MOLECULE": "Cn1c2nc(Cc3cc[nH]n3)sc2c2cnn(Cc3cc(F)[nH]n3)c(=O)c21",
    "EXPERIMENTAL_SYSTEM": "PKR K410E (Homo sapiens, UniProt P30613, K410E)",
    "REPORTED_MEASUREMENT": "< 300 nM"
  },
  {
    "MOLECULE": "Cn1c2nc(Cc3cc[nH]n3)sc2c2cnn(Cc3ccc(C#N)cn3)c(=O)c21",
    "EXPERIMENTAL_SYSTEM": "PKR K410E (Homo sapiens, UniProt P30613, K410E)",
    "REPORTED_MEASUREMENT": "< 300 nM"
  }
]

## Task Find the recorded AC50 belonging to Cn1c2nc(Cc3cc[nH]n3)sc2c2cnn(Cc3nc[nH]n3)c(=O)c21 and report it.
## Result < 300 nM

## Task Item under review: Cn1c2nc(Cc3c[nH]nn3)sc2c2cnn(Cc3nccs3)c(=O)c21 . Reported AC50?
## Result < 300 nM

## Task Form field: reported AC50 of Cn1c2nc(Cc3cscn3)sc2c2cnn(Cc3cccc(N)n3)c(=O)c21
## Result < 300 nM

* * *

Molecular target: wild type PKR (Homo sapiens)
Assay: Cell based ATP assay in purified red blood cells
Design: endogenous in cells; host or cells: purified red blood cells from blood of healthy volunteers
Conditions: RBCs, overnight at 37° C., ATP levels by Cell-Titer-Glo
Method: Example 16. Red Blood Cell (RBC) Purification Fresh blood drawn from healthy volunteers into K2EDTA tubes was collected. Whole blood was pelleted by spinning at 500 g for 10 minutes. Cut transfusion bag port off of Purecell leukocyte reduction neofilter (Fisher NCO267633) one (1) inch above filter. […] For cell based ATP assays, the compound as described herein was prepared in 100% DMSO as a 10 mM stock. […] ATP levels were read out using Cell-Titer-Glo (Promega).
Listed next: entries and their corresponding AC50.

Previously resolved entries follow.
[
  {
    "CHEMICAL_STRUCTURE": "Cn1ncc(Cn2ncc3c4sc(Cc5cc[nH]n5)nc4n(C)c3c2=O)n1",
    "AC50": "≤ 1 µM"
  },
  {
    "CHEMICAL_STRUCTURE": "Cn1c2nc(Cc3n[nH]cc3F)sc2c2cnn(Cc3n[nH]cc3F)c(=O)c21",
    "AC50": "≤ 1 µM"
  },
  {
    "CHEMICAL_STRUCTURE": "Cn1c2nc(Cc3ccccn3)sc2c2cnn(Cc3cc[nH]n3)c(=O)c21",
    "AC50": "≤ 1 µM"
  }
]

## Task Quick check: AC50 of Cn1c2nc(Cc3cc[nH]n3)sc2c2cnn(Cc3nccc(N)n3)c(=O)c21 ?
## Result ≤ 1 µM

## Task Requested read-out: AC50. Entry: COc1ccc(Cn2ncc3c4sc(Cc5cc[nH]n5)nc4n(C)c3c2=O)cn1
## Result ≤ 1 µM

## Task Would you kindly share the measured AC50 for Cn1c2nc(Cc3cc[nH]n3)sc2c2cnn(Cc3cc(C(N)=O)[nH]n3)c(=O)c21 ?
## Result > 1 µM
